Hello, the source for this data is the NIST ThermoML archive (doi:10.1021/je060247x), in case you need it.

- Assay Conditions: 303.15 K; 2000 kPa; Liquid
Assay Metric: mass density (kg/m3)
Write the value in kg/m3 as a bare number.

// below: answered compounds
CCCCn1cc[n+](C)c1.F[B-](F)(F)F [1-butyl-3-methylimidazolium tetrafluoroborate] = 1199.6
CCCCCCCC[n+]1ccn(C)c1.F[P-](F)(F)(F)(F)F [1-octyl-3-methylimidazolium hexafluorophosphate] = 1235
CCCCCCCC[n+]1ccn(C)c1.F[B-](F)(F)F [1-methyl-3-octylimidazolium tetrafluoroborate] = 1101.6
CCCCn1cc[n+](C)c1.O=S(=O)([O-])C(F)(F)F [1-butyl-3-methylimidazolium trifluoromethanesulfonate] = 1297.7

Query compound follows.
Reported mass density for CCCCCCn1cc[n+](C)c1.F[P-](F)(F)(F)(F)F [1-hexyl-3-methylimidazolium hexafluorophosphate] was 1291.7

* * *

Below: a set of entries, each annotated with reported mass density.
- Assay Conditions: 333.15 K; 1000 kPa; Liquid
Write the value in kg/m3 as a bare number.

// below: answered compounds
CCCCCCCC[n+]1ccn(C)c1.F[B-](F)(F)F [1-methyl-3-octylimidazolium tetrafluoroborate] = 1078.7
CCCCn1cc[n+](C)c1C.F[P-](F)(F)(F)(F)F [1-butyl-2,3-dimethylimidazolium hexafluorophosphate] = 1322.4
CCCCCCCC[n+]1ccn(C)c1.F[P-](F)(F)(F)(F)F [1-octyl-3-methylimidazolium hexafluorophosphate] = 1209.7
CCCCn1cc[n+](C)c1.F[B-](F)(F)F [1-butyl-3-methylimidazolium tetrafluoroborate] = 1176.3
CCCCn1cc[n+](C)c1.O=S(=O)([O-])C(F)(F)F [1-butyl-3-methylimidazolium trifluoromethanesulfonate] = 1271.1

Reported mass density for CCCCCCn1cc[n+](C)c1.F[P-](F)(F)(F)(F)F [1-hexyl-3-methylimidazolium hexafluorophosphate] was 1264.8

* * *

Below: a set of entries, each annotated with reported mass density.
- Assay Conditions: 333.15 K; 4000 kPa; Liquid
Write the value in kg/m3 as a bare number.

// below: answered compounds
CCCCn1cc[n+](C)c1C.F[P-](F)(F)(F)(F)F [1-butyl-2,3-dimethylimidazolium hexafluorophosphate] = 1324.1
CCCCCCn1cc[n+](C)c1.F[P-](F)(F)(F)(F)F [1-hexyl-3-methylimidazolium hexafluorophosphate] = 1266.6
CCCCCCCC[n+]1ccn(C)c1.F[P-](F)(F)(F)(F)F [1-octyl-3-methylimidazolium hexafluorophosphate] = 1211.6
CCCCn1cc[n+](C)c1.O=S(=O)([O-])C(F)(F)F [1-butyl-3-methylimidazolium trifluoromethanesulfonate] = 1273.1

Reported mass density for CCCCCCCC[n+]1ccn(C)c1.F[B-](F)(F)F [1-methyl-3-octylimidazolium tetrafluoroborate] was 1080.3

Reported mass density for CCCCn1cc[n+](C)c1.F[B-](F)(F)F [1-butyl-3-methylimidazolium tetrafluoroborate] was 1177.9

* * *

- Assay Conditions: 373.15 K; 100 kPa; Liquid
Below: a set of entries, each annotated with reported mass density.
Write the value in kg/m3 as a bare number.

// below: answered compounds
CCCCn1cc[n+](C)c1.F[B-](F)(F)F [1-butyl-3-methylimidazolium tetrafluoroborate] = 1148.2
CCCCn1cc[n+](C)c1C.F[P-](F)(F)(F)(F)F [1-butyl-2,3-dimethylimidazolium hexafluorophosphate] = 1290.6
CCCCCCCC[n+]1ccn(C)c1.F[B-](F)(F)F [1-methyl-3-octylimidazolium tetrafluoroborate] = 1052.4
CCCCn1cc[n+](C)c1.O=S(=O)([O-])C(F)(F)F [1-butyl-3-methylimidazolium trifluoromethanesulfonate] = 1239.6
CCCCCCn1cc[n+](C)c1.F[P-](F)(F)(F)(F)F [1-hexyl-3-methylimidazolium hexafluorophosphate] = 1233.4

Reported mass density for CCCCCCCC[n+]1ccn(C)c1.F[P-](F)(F)(F)(F)F [1-octyl-3-methylimidazolium hexafluorophosphate] was 1179.2

* * *

- Assay Conditions: 383.15 K; 3000 kPa; Liquid
Below: a set of entries, each annotated with reported mass density.
Write the value in kg/m3 as a bare number.

CCCCCCCC[n+]1ccn(C)c1.F[P-](F)(F)(F)(F)F [1-octyl-3-methylimidazolium hexafluorophosphate] = 1174.9
CCCCCCn1cc[n+](C)c1.F[P-](F)(F)(F)(F)F [1-hexyl-3-methylimidazolium hexafluorophosphate] = 1228.7

Reported mass density for CCCCn1cc[n+](C)c1C.F[P-](F)(F)(F)(F)F [1-butyl-2,3-dimethylimidazolium hexafluorophosphate] was 1285.3

Reported mass density for CCCCn1cc[n+](C)c1.F[B-](F)(F)F [1-butyl-3-methylimidazolium tetrafluoroborate] was 1143.7

Reported mass density for CCCCn1cc[n+](C)c1.O=S(=O)([O-])C(F)(F)F [1-butyl-3-methylimidazolium trifluoromethanesulfonate] was 1234.6

Reported mass density for CCCCCCCC[n+]1ccn(C)c1.F[B-](F)(F)F [1-methyl-3-octylimidazolium tetrafluoroborate] was 1048.5

* * *

- Assay Conditions: 383.15 K; 100 kPa; Liquid
Below: a set of entries, each annotated with reported mass density.
Write the value in kg/m3 as a bare number.

// below: answered compounds
CCCCn1cc[n+](C)c1.F[B-](F)(F)F [1-butyl-3-methylimidazolium tetrafluoroborate] = 1142
CCCCCCCC[n+]1ccn(C)c1.F[P-](F)(F)(F)(F)F [1-octyl-3-methylimidazolium hexafluorophosphate] = 1172.7
CCCCn1cc[n+](C)c1.O=S(=O)([O-])C(F)(F)F [1-butyl-3-methylimidazolium trifluoromethanesulfonate] = 1232.4

Reported mass density for CCCCn1cc[n+](C)c1C.F[P-](F)(F)(F)(F)F [1-butyl-2,3-dimethylimidazolium hexafluorophosphate] was 1283.4

Reported mass density for CCCCCCn1cc[n+](C)c1.F[P-](F)(F)(F)(F)F [1-hexyl-3-methylimidazolium hexafluorophosphate] was 1226.4

Reported mass density for CCCCCCCC[n+]1ccn(C)c1.F[B-](F)(F)F [1-methyl-3-octylimidazolium tetrafluoroborate] was 1046.6

* * *

- Assay Conditions: 373.15 K; 1000 kPa; Liquid
Numbers after ± are expanded uncertainties.
Assay Metric: mass density
# number then unit; no other words

Reported mass density for CCCCn1cc[n+](C)c1.O=S(=O)([O-])C(F)(F)F [1-butyl-3-methylimidazolium trifluoromethanesulfonate] was 1240.3 ± 1.4 kg/m3

Reported mass density for CCCCCCCC[n+]1ccn(C)c1.F[B-](F)(F)F [1-methyl-3-octylimidazolium tetrafluoroborate] was 1053 ± 0.8 kg/m3

* * *

Below: a set of entries, each annotated with reported mass density.
- Assay Conditions: 353.15 K; 3000 kPa; Liquid
Write the value in kg/m3 as a bare number.

// below: answered molecules
CCCCn1cc[n+](C)c1C.F[P-](F)(F)(F)(F)F [1-butyl-2,3-dimethylimidazolium hexafluorophosphate] = 1307.2
CCCCCCCC[n+]1ccn(C)c1.F[P-](F)(F)(F)(F)F [1-octyl-3-methylimidazolium hexafluorophosphate] = 1195.7
CCCCn1cc[n+](C)c1.O=S(=O)([O-])C(F)(F)F [1-butyl-3-methylimidazolium trifluoromethanesulfonate] = 1256
CCCCn1cc[n+](C)c1.F[B-](F)(F)F [1-butyl-3-methylimidazolium tetrafluoroborate] = 1163
CCCCCCCC[n+]1ccn(C)c1.F[B-](F)(F)F [1-methyl-3-octylimidazolium tetrafluoroborate] = 1066.4

Query molecule follows.
Reported mass density for CCCCCCn1cc[n+](C)c1.F[P-](F)(F)(F)(F)F [1-hexyl-3-methylimidazolium hexafluorophosphate] was 1249.9

* * *

Below: a set of entries, each annotated with reported mass density.
- Assay Conditions: 373.15 K; 4000 kPa; Liquid
Write the value in kg/m3 as a bare number.

// below: answered molecules
CCCCn1cc[n+](C)c1.O=S(=O)([O-])C(F)(F)F [1-butyl-3-methylimidazolium trifluoromethanesulfonate] = 1242.5
CCCCCCCC[n+]1ccn(C)c1.F[P-](F)(F)(F)(F)F [1-octyl-3-methylimidazolium hexafluorophosphate] = 1182
CCCCn1cc[n+](C)c1C.F[P-](F)(F)(F)(F)F [1-butyl-2,3-dimethylimidazolium hexafluorophosphate] = 1293.2
CCCCn1cc[n+](C)c1.F[B-](F)(F)F [1-butyl-3-methylimidazolium tetrafluoroborate] = 1150.4
CCCCCCCC[n+]1ccn(C)c1.F[B-](F)(F)F [1-methyl-3-octylimidazolium tetrafluoroborate] = 1054.9

Query molecule follows.
Reported mass density for CCCCCCn1cc[n+](C)c1.F[P-](F)(F)(F)(F)F [1-hexyl-3-methylimidazolium hexafluorophosphate] was 1236.3

* * *

- Assay Conditions: 363.15 K; 10000 kPa; Liquid
Below: a set of entries, each annotated with reported mass density.
Write the value in kg/m3 as a bare number.

CCCCn1cc[n+](C)c1C.F[P-](F)(F)(F)(F)F [1-butyl-2,3-dimethylimidazolium hexafluorophosphate] = 1303.6
CCCCCCCC[n+]1ccn(C)c1.F[B-](F)(F)F [1-methyl-3-octylimidazolium tetrafluoroborate] = 1064.4
CCCCCCCC[n+]1ccn(C)c1.F[P-](F)(F)(F)(F)F [1-octyl-3-methylimidazolium hexafluorophosphate] = 1193

Reported mass density for CCCCn1cc[n+](C)c1.O=S(=O)([O-])C(F)(F)F [1-butyl-3-methylimidazolium trifluoromethanesulfonate] was 1253.8

Reported mass density for CCCCCCn1cc[n+](C)c1.F[P-](F)(F)(F)(F)F [1-hexyl-3-methylimidazolium hexafluorophosphate] was 1247.2

Reported mass density for CCCCn1cc[n+](C)c1.F[B-](F)(F)F [1-butyl-3-methylimidazolium tetrafluoroborate] was 1160.1
